Listing: self-cleavage of selected variants
B1: CPEB3 Ribozyme (parent)
chain: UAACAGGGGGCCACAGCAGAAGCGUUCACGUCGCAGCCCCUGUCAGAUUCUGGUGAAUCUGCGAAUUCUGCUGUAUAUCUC

# Variants of: B1
# assay.method.text: self-cleavage, relative activity (ratio to wild type); higher = more cleavage; in vitro, sequencing
Please give the numeric answer without any surrounding text.

Example entries begin here.
Item under review: G61C C62U . Reported self-cleavage? 0.22

Next: U48C U72A 0.4

What do we get for U51C U76C ? 1.07

Let us examine a further case.
Field request: self-cleavage | item: C11A C23U 0.06
